- Experimental Protocol: amyloid nucleation score (Sup35N fusion, yeast selection) (log enrichment); library NNK3; higher = more nucleation; inactive = no reads after selection;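 also: zero at mode of non-aggregating sequences after 7 days selection at 30°C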
Endpoint Label: amyloid nucleation score

[[record]]
substance = "AEARTPIECVC"
endpoint_label = "amyloid nucleation score"
experimental_result = "inactive"

[[record]]
substance = "KDLYIIIITRMYRIFKS"
endpoint_label = "amyloid nucleation score"
experimental_result = "inactive"

[[record]]
substance = "DWNRLFRVD"
endpoint_label = "amyloid nucleation score"
experimental_result = "inactive"

[[record]]
substance = "MLYRCLAKYRMWHYVDLSLL"
endpoint_label = "amyloid nucleation score"
experimental_result = "inactive"

[[record]]
substance = "VTTIVYDSYCPLPRCWTWVG"
endpoint_label = "amyloid nucleation score"
experimental_result = "inactive"

[[record]]
substance = "LYYMKVIGTFRISEAILLYL"
endpoint_label = "amyloid nucleation score"
experimental_result = "inactive"

[[record]]
substance = "RFHSSLCCNMVWF"
endpoint_label = "amyloid nucleation score"
experimental_result = 3.06

[[record]]
substance = "FGVTTEF"
endpoint_label = "amyloid nucleation score"
experimental_result = 1.23

[[record]]
substance = "SCWLGVVETRHNLYDAQNGS"
endpoint_label = "amyloid nucleation score"
experimental_result = "inactive"

[[record]]
substance = "INGDNAPGYYYIMMIPRDIH"
endpoint_label = "amyloid nucleation score"
experimental_result = 0.858


====

- Experimental Protocol: amyloid nucleation score (Sup35N fusion, yeast selection) (log enrichment); library NNK2; higher = more nucleation; inactive = no reads after selection
Recorded amyloid nucleation score values for a group of substances are listed next.
Endpoint Label: amyloid nucleation score

[[record]]
substance = "PIITFNTI"
experimental_result = -0.637

[[record]]
substance = "LYDGSVRQWTDEHWWVMSGG"
experimental_result = 0.988

[[record]]
substance = "FFNMMSK"
experimental_result = -1.72

[[record]]
substance = "NTYYFKALT"
experimental_result = 0.072

[[record]]
substance = "STFSYGCSSTGAFCRLLCRM"
experimental_result = 0.516

[[record]]
substance = "LNNYSSGFRGMIVFFVVVYV"
experimental_result = -1.06

[[record]]
substance = "PDHKLARTIYWAPCTMDWVI"
experimental_result = -0.057

[[record]]
substance = "TSCGCTW"
experimental_result = 0.092

[[record]]
substance = "SAIKYIGILAMRDQDQASQI"
experimental_result = -1.59

[[record]]
substance = "WRNCYVYRTVLR"
experimental_result = 2.36

[[record]]
substance = "SECFRLSLRKGCNTNQVRNT"
experimental_result = -0.989

[[record]]
substance = "LTMQKWLF"
experimental_result = 0.28

[[record]]
substance = "FSVIICVTALVWACCCTRIV"
experimental_result = 1.09

[[record]]
substance = "LRVGSRKVRVWSLVSFCLVV"
experimental_result = -0.271

[[record]]
substance = "YLVNNAEMVNMELMISVSGA"
experimental_result = -0.337

[[record]]
substance = "KCDLMRWSHFQ"
experimental_result = 1.24

[[record]]
substance = "WLYNMTRLHIPFYARNWLNS"
experimental_result = 0.352

[[record]]
substance = "LMNGVGLFNQMGWVVERYLE"
experimental_result = -0.357

[[record]]
substance = "LHTWSVSLVYYNVFYLSSRA"
experimental_result = -0.417

[[record]]
substance = "SFDTCRSLIRLYHVPPRTVL"
experimental_result = -0.276

[[record]]
substance = "PSLRSSCCWNFRPP"
experimental_result = 0.175

[[record]]
substance = "IKSVRTWGSLESA"
experimental_result = -0.073

[[record]]
substance = "CPSFMNSFDASRNIWIVPSG"
experimental_result = 3.28

[[record]]
substance = "STARRRCYFGFGLGQSSAAI"
experimental_result = -0.891

[[record]]
substance = "DKYITCVESWWPSILGGEKP"
experimental_result = 1.87

[[record]]
substance = "TLFVKTYMSVFYIIACSSC"
experimental_result = -0.218

[[record]]
substance = "TSPNFLSRLQVRYYRIRVSL"
experimental_result = -0.026

[[record]]
substance = "GITCCSMSRRFCFRGEGTEW"
experimental_result = 3.81

[[record]]
substance = "SIAWRLEFIVDDGVLFRCKS"
experimental_result = -0.563

[[record]]
substance = "ATHVCVGFTYGFWW"
experimental_result = 2.4

[[record]]
substance = "KVDQGMQSSLRKCPFHQIKP"
experimental_result = 1.62

[[record]]
substance = "RLIRFSIMEV"
experimental_result = -0.291

[[record]]
substance = "YYSDVGVYSVRGYLLWS"
experimental_result = -0.447

[[record]]
substance = "GRPAAHAPSHPTRSVLGMS"
experimental_result = 0.763

[[record]]
substance = "FTLWFQTLARGGMLARNLFK"
experimental_result = -1.17

[[record]]
substance = "LHWGEFEYCILCARGDIKR"
experimental_result = -0.755

[[record]]
substance = "NVGYWYCLD"
experimental_result = 8.81

[[record]]
substance = "WTLTGHVRNLKLQVCMSVY"
experimental_result = 0.789

[[record]]
substance = "NLGCWLVGWLNCGFRWDDDR"
experimental_result = 5.64

[[record]]
substance = "WPVCTSIYMVGWWSVHTYHG"
experimental_result = 0.705

[[record]]
substance = "AYCFVGFALVRCVGANDVRR"
experimental_result = 1.6

[[record]]
substance = "AMMFDVFRYLRESVISMCKG"
experimental_result = 0.367

[[record]]
substance = "PDSMGKVIYYKSESCFYSRG"
experimental_result = 2.72

[[record]]
substance = "IYACGYGLFYEYHTCSMCEI"
experimental_result = -0.977

[[record]]
substance = "QVVDGWWGNYFIV"
experimental_result = -1.92

[[record]]
substance = "QMIWKIVCING"
experimental_result = 4.55

[[record]]
substance = "HDLKLV"
experimental_result = 0.266

[[record]]
substance = "KAMYFYSRTVRPMMGSEEGS"
experimental_result = -0.072

[[record]]
substance = "GMVFRRWREMYSSFVDRTLR"
experimental_result = 0.799

[[record]]
substance = "STTLIEFSLYIRYYTND"
experimental_result = 4.64

[[record]]
substance = "GLRSIGLGVQSFRSYQFSRI"
experimental_result = -0.415

[[record]]
substance = "AYAKGYCLLSPVLDWRLHFS"
experimental_result = 2.52

[[record]]
substance = "RRETRMGVSSVLDPVAGRWP"
experimental_result = 1.58

[[record]]
substance = "IRMVDTCRVLKLSGEPFSRD"
experimental_result = -0.993

[[record]]
substance = "RLLHYAFAFTARV"
experimental_result = 3.15

[[record]]
substance = "SLQSDQSADFREDKGRSKAE"
experimental_result = 0.898

[[record]]
substance = "TLRIGDFPWISWSEGVWVGG"
experimental_result = 0.244


====

- Experimental Protocol: amyloid nucleation score (Sup35N fusion, yeast selection) (log enrichment); library NNK2; higher = more nucleation; inactive = no reads after selection
Endpoint Label: amyloid nucleation score

[[record]]
substance = "VDNNVGSWPLWP"
endpoint_label = "amyloid nucleation score"
experimental_result = -0.08

[[record]]
substance = "RVTFSLWFADFIQNNLLKK"
endpoint_label = "amyloid nucleation score"
experimental_result = 0.158

[[record]]
substance = "HKWKII"
endpoint_label = "amyloid nucleation score"
experimental_result = -1.55

[[record]]
substance = "TSGVTWQLACSVK"
endpoint_label = "amyloid nucleation score"
experimental_result = 4.2

[[record]]
substance = "DCSCFYFF"
endpoint_label = "amyloid nucleation score"
experimental_result = 2.96

[[record]]
substance = "WRLNEDHNRYDLIPGVRGLG"
endpoint_label = "amyloid nucleation score"
experimental_result = 0.519

[[record]]
substance = "IMVRLLDAYHTMRAKDSMGN"
endpoint_label = "amyloid nucleation score"
experimental_result = 0.06

[[record]]
substance = "ILASCTSRCFESEVRGTSFA"
endpoint_label = "amyloid nucleation score"
experimental_result = 0.568

[[record]]
substance = "YYVAIVSLWSGVKYVMVKFA"
endpoint_label = "amyloid nucleation score"
experimental_result = -1.07

[[record]]
substance = "TWNLMNKVYIVPGLDPDTRS"
endpoint_label = "amyloid nucleation score"
experimental_result = 7.22

[[record]]
substance = "VCYMLRNFCDVQHKK"
endpoint_label = "amyloid nucleation score"
experimental_result = 0.1

[[record]]
substance = "HKLLCGYTQSQHQRIGFQEF"
endpoint_label = "amyloid nucleation score"
experimental_result = -0.733

[[record]]
substance = "RYGVRTSAPNMQWLFAGWS"
endpoint_label = "amyloid nucleation score"
experimental_result = 0.613

[[record]]
substance = "ALWCRENFINCYIPYLQMFF"
endpoint_label = "amyloid nucleation score"
experimental_result = 6.22

[[record]]
substance = "AEMVSANRLSKCEMTIRLWD"
endpoint_label = "amyloid nucleation score"
experimental_result = 3.64

[[record]]
substance = "GDPDQVYSFR"
endpoint_label = "amyloid nucleation score"
experimental_result = 0.034

[[record]]
substance = "EYNRTLWSCYHWFVHVPPTN"
endpoint_label = "amyloid nucleation score"
experimental_result = -0.171

[[record]]
substance = "VSKPQKRFKDEFYSLLSVKF"
endpoint_label = "amyloid nucleation score"
experimental_result = -0.55


All values here come from the supplement of paper PMC12042874.
